- tgt: Grb2 SH2 (UniProt P62993)
- Sequence (P62993 whole entry, looked up): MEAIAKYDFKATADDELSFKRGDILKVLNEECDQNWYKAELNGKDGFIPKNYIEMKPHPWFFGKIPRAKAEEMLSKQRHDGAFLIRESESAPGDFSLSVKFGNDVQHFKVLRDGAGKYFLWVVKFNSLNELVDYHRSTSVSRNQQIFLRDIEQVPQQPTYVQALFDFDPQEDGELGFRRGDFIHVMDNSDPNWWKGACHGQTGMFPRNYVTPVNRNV
- method.description: SH2 binding enrichment of the phosphorylated peptide, bacterial display (enrichment ratio); higher = better substrate or ligand; peptides without Tyr show the background
Give SH2 binding enrichment for every item shown.
Kindly provide the number alone.

Query: Record request: SH2 binding enrichment value, item VAFVYYKSIGP [ADGRL4_Y302]
Result: 0.838

Query: Look at this sequence and give its reported SH2 binding enrichment. PGLRGYPGLSG [COL4A2_Y306]
Result: 0.958

Query: Fill in the blank: the reported SH2 binding enrichment of PGIRMYRVQYN [LRFN1_Y454_Q455R] is ____.
Result: 0.838

====

- tgt: Grb2 SH2 (UniProt P62993)
- method.description: SH2 binding enrichment of the phosphorylated peptide, bacterial display (enrichment ratio); higher = better substrate or ligand; peptides without Tyr show the background
# if value of SH2 binding enrichment reaches 0.8, tag YES; if it stays below, tag NO

Query: Quick check: does QLFGPYLRIHA [BSCL2_Y213_A212P_YF] have SH2 binding enrichment greater than or equal to 0.8?
Result: YES

Query: API: above_or_equal(metric=SH2 binding enrichment, cutoff=0.8) for item QEGPEYWDEET [HLA-A_Y83_Q86E]
Result: YES

Query: # check: SH2 binding enrichment of DDHFTYSRYPW [LY75_Y888] is greater than or equal to 0.8
Result: NO

Query: Does LQPNNCQFCGG [CSF1R_Y969_Y969C] have a reported SH2 binding enrichment of at least 0.8?
Result: YES

Query: Is SH2 binding enrichment for GLQDEYDFKCK [STAT1_Y170_D165G] at or above 0.8?
Result: NO

Query: Could you please find out whether EHIEFYELDKK [PMM2_Y145_R141H] has SH2 binding enrichment that meets 0.8 or exceeds it?
Result: NO

Query: Hello, I need to know if SVTCTYSPAVN [TP53_Y126_L130V] has measured SH2 binding enrichment not below 0.8. Thanks!
Result: NO

Query: Given the entry VGTKRYMASEV [ACVRL1_Y375_P378S] , answer whether its SH2 binding enrichment meets or surpasses 0.8.
Result: YES

Query: Can DPLLTYRFPPN [LMNA_Y481_K486N] be said to have SH2 binding enrichment at or above 0.8?
Result: NO

Query: Given the entry MIAIRYSHSRR [ACOXL_Y260_T255M] , answer whether its SH2 binding enrichment meets or surpasses 0.8.
Result: YES

Query: Reported SH2 binding enrichment reaches at least 0.8 for ETLLFYGCRRS [POR_Y564_YF] ?
Result: NO

Query: Is SH2 binding enrichment for MGSYNYLGFPR [SPTLC2_Y178_A182P] at or above 0.8?
Result: YES

Query: Decide: SH2 binding enrichment of ISPPVYLTNEW [NRK_Y885] >= 0.8?
Result: YES

Query: hey, is SH2 binding enrichment for this one >= 0.8? HAEERYGKELV [PSTPIP1_Y53_Q48H]
Result: NO

Query: Textbook exercise: given the entry KRGASYILKLA [SERPINB1_Y84] , state whether its SH2 binding enrichment is greater than or equal to 0.8.
Result: YES

Query: Test whether the sequence ASNFNYFFHRE [KCNA1_Y413_V408A_YF] records SH2 binding enrichment of 0.8 or higher.
Result: YES

Query: Has KFWREYILSLE [GPC3_Y299_YF] a recorded SH2 binding enrichment greater than or equal to 0.8?
Result: YES

Query: Exam item: decide whether the reported SH2 binding enrichment for SLVGCYNLTFM [HS6ST3_Y323] is at least 0.8.
Result: NO

Query: Is SH2 binding enrichment for VGGRIYIDDAL [PKLR_Y218_G222A] at or above 0.8?
Result: NO

Query: Please tell me: is the sequence DPHECYAKVFN [ALB_Y394_D399N] at or over 0.8 in terms of SH2 binding enrichment?
Result: YES

Query: Item NHFKIYNLCAE [PTEN_Y68_YF] with SH2 binding enrichment of 0.8 or above?
Result: YES

Query: Tell me whether SH2 binding enrichment is at least 0.8 here: FSTDCYRVGGH [NTRK2_Y707_Y706C_YF]
Result: YES

Query: Does the reported SH2 binding enrichment for KHCEDYVCSFN [DSC1_Y846_YF] fall at or above the 0.8 mark?
Result: YES

Query: Threshold query (SH2 binding enrichment >= 0.8) on KDQPDYKFQPR [SOX9_Y172_H169Q_YF]
Result: YES

Query: Determine whether this sequence has SH2 binding enrichment no lower than 0.8: QKMADYSNKLH [PDPR_Y104_Y109H]
Result: NO

Query: Quick check: does DPAFGYEDFTR [SESN2_Y323_T320A] have SH2 binding enrichment greater than or equal to 0.8?
Result: YES

Query: Item VYLGAYDRFLP [SLC22A5_Y486] with SH2 binding enrichment of 0.8 or above?
Result: YES

Query: Decide: SH2 binding enrichment of DDERGYRRVRC [GIGYF2_Y268_S273C] >= 0.8?
Result: YES

Query: Quick check: does SHTPSYCDEWL [RITA1_Y109_S113W] have SH2 binding enrichment greater than or equal to 0.8?
Result: YES

Query: Reported SH2 binding enrichment at or above 0.8? AKLVQYFMEHH [PTPN11_Y80_E76K_YF]
Result: YES

Query: Is SH2 binding enrichment at least 0.8? Consider NGLVAYKDGKL [PMM2_Y76]
Result: YES

Query: Is reported SH2 binding enrichment greater than or equal to 0.8 here: RENGPYFTSFP [GDAP2_Y487_YF]
Result: YES

Query: Assess whether reported SH2 binding enrichment for LNEWHYGGLTG [PGAM2_Y92_R90W] sits at 0.8 or higher.
Result: NO

Query: Check if SH2 binding enrichment >= 0.8 (inclusive). Item: KSVEEYANCHL [TF_Y593_P589S]
Result: YES

====

Give measured phosphorylation enrichment for each item. Keep answers brief.
- Tested on: AncSZ;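 further: 11-residue human phosphosite peptides and single-mutation variants displayed on the E. coli surface, counted by deep sequencing, each peptide's frequency after selection divided by its frequency in the unselected input library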;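 further: frequency after pTyr selection over input frequency; kinase dosed for 20-30% of maximal phosphorylation in three min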
- method.description: phosphorylation enrichment, bacterial display (enrichment ratio); higher = better substrate or ligand; peptides without Tyr show the background
Please give only the number in your answer, with no unit.

Query: Find the recorded phosphorylation enrichment belonging to KASIMYPSSNC [CXCL11_Y52_N55S] and report it.
Result: 0.629

Query: Which phosphorylation enrichment value belongs to TVSSDYLHPQF [CCPG1_Y569_F566S_YF] ?
Result: 1.8

Query: # query: phosphorylation enrichment of entry MAFDRYVAICA [OR52J3_Y125_V128I]
Result: 0.939

Query: Quick one: phosphorylation enrichment of SMGHRYIEVFR [HNRNPF_Y82_K87R] ?
Result: 0.622

Query: Suppose we examine the sequence QRVLLYVRRET [GRHL3_Y518] ; what phosphorylation enrichment value has been reported?
Result: 1.01

Query: Which phosphorylation enrichment value is on record for EAVSIYQFFGQ [CBLC_Y402_H405Y_YF] ?
Result: 1.74

Query: Query (sequence): IRRIAYEFVEM [ADA_Y84_K80R] ; field requested: phosphorylation enrichment
Result: 0.887

Query: Would you mind telling me what phosphorylation enrichment value was observed for ASYGPNTRVQS [FOXL2_Y258_Y258N] ?
Result: 0.537

Query: // lookup phosphorylation enrichment for ISRASYFRKGG [ALK_Y1282_Y1278S_YF]
Result: 0.664

Query: Could you share which phosphorylation enrichment value was measured for DPNQQYFIAMD [TBX15_Y159_H156N_YF] ?
Result: 1.07

Query: Given the sequence TGGLEYIVPLM [CLCN4_Y548] , what is its reported phosphorylation enrichment?
Result: 2.14

Query: Need phosphorylation enrichment, item KDHPDYKYQAR [SOX10_Y171_P175A]
Result: 0.606

Query: Please look up its phosphorylation enrichment: KFANSYRMEPL [TCTE3_Y87]
Result: 0.574

Query: If you can, please state the reported phosphorylation enrichment value of FGSVDCWEKFF [EEF1AKNMT_Y16_Y16C] .
Result: 1.14

Query: Please report the recorded phosphorylation enrichment for RAMRRYLEWGE [ERBB3_Y680_R683W] .
Result: 0.514

Query: Item LKTNCYNNGKD [DNMT3B_Y404] has what recorded phosphorylation enrichment?
Result: 1.12

Query: Which value of phosphorylation enrichment has been reported for KMMGRYEMYAR [UPB1_Y362_T359M] in the records?
Result: 0.711

Query: What value of measured phosphorylation enrichment is listed for RELGEYALAEF [ALDH1A3_Y492_YF] ?
Result: 1.28

Query: Given PGQRVYVVAES [SHH_Y316_R321S] , state its recorded phosphorylation enrichment.
Result: 1.06

Query: I'd like to know its phosphorylation enrichment. The sequence in question is ALVFLSFCIIF [SIGLEC12_Y494_Y494S]
Result: 1.05

Query: What value of phosphorylation enrichment has been reported for the following sequence? AVLSLYASGRN [ACTA1_Y145_T150N]
Result: 0.858

Query: // phosphorylation enrichment lookup, key: FTDPFYDFEIE [ZC3H18_Y372_A368T_YF]
Result: 1.37

Query: What value of phosphorylation enrichment has been reported for the following sequence? ELPEKYSQNIC [PKP2_Y626_Y631C]
Result: 1.01

Query: Param item = SHTPSYCDEWL [RITA1_Y109_S113W] ; retrieve measured phosphorylation enrichment.
Result: 1.17

Query: Given the sequence AVDMTYDGHPV [FLNB_Y1020_V1018M] , what is its reported phosphorylation enrichment?
Result: 1.19

Query: // lookup phosphorylation enrichment for AGADGYDFLAP [FOXL2_Y186_G187D_YF]
Result: 0.984

Query: Sample QLRPGYFPIPV [BAG3_Y93_I94F] — what was its phosphorylation enrichment?
Result: 0.6

Query: What value of phosphorylation enrichment has been recorded for this entry: LGLDECLDKLK [FMNL2_Y352_Y352C]
Result: 1.91

Query: phosphorylation enrichment lookup needed for NQDRTYYESVR [SPEN_Y632] , thanks.
Result: 0.897

Query: Requested field: phosphorylation enrichment. Item: IGEVVYQRAVM [GRIN2A_Y502]
Result: 0.869

Query: Look up phosphorylation enrichment for this sequence: CVVVPYEPPEV [TP53_Y220_S215C]
Result: 1.65

Query: So what does the record say about phosphorylation enrichment for SLIDMYSKVLD [OPA1_Y268_E270K] ?
Result: 0.953

Query: Which phosphorylation enrichment is reported for this sequence? KGYRGYSYDDI [TMEM230_Y110]
Result: 0.756

Query: Requested field: phosphorylation enrichment. Item: QRRYLYYYSYL [PTEN_Y176_V175L]
Result: 1.14

Query: What phosphorylation enrichment value was documented for this sequence, FAELVYTGFWH [ASS1_Y322] ?
Result: 1.54

Query: Which phosphorylation enrichment reading was recorded for the sequence KFDLMYAKLAF [TUBA1A_Y399_R402L] ?
Result: 0.818

Query: Tell me the measured phosphorylation enrichment of NHFKIYNLCAE [PTEN_Y68_YF] , please.
Result: 0.882

Query: If you can, please state the reported phosphorylation enrichment value of DFPMGYPSYLA [TBCK_Y153_I151M] .
Result: 0.65

Query: Fill in the blank: the reported phosphorylation enrichment of DVRQEYPGMIL [PLXND1_Y616] is ____.
Result: 0.675

Query: May I ask what phosphorylation enrichment has been recorded for MIAIRYSHSRR [ACOXL_Y260_T255M] ?
Result: 0.875

Query: Reported phosphorylation enrichment for SREDIYKRNTE [PDE4DIP_Y45_I49T] : what is it?
Result: 0.8

Query: # phosphorylation enrichment lookup, item FFRCHYPLTTL [TNS4_Y644_R642C]
Result: 0.914
